system: Staphylococcus aureus; experiment: Antibacterial activity against Staphylococcus aureus; type: functional
measured quantity: MIC

1) CC(=O)C1=C(O)SC(C)(C/C=C(\C)CC/C=C(\C)CCC=C(C)C)C1=O (stereo not given) ... > 200 µg/mL
2) CC(=O)C1=C(O)S/C(=C\c2cccs2)C1=O ... > 200 µg/mL
3) CCCCCC(=O)/C=C/C(C)=C/[C@@]1(C)SC(O)=C(C)C1=O ... > 100 µg/mL
4) CC(=O)C1=C(O)C(C)(C/C=C/c2ccccc2)SC1=O (stereo not given) ... 3.13 µg/mL
5) CC(=O)C1=C(O)S/C(=C\c2cccc(Oc3cccc(C(F)(F)F)c3)c2)C1=O ... 0.78 µg/mL
6) CC1=C(O)S[C@](C)(/C=C(C)/C=N/OCc2ccccc2)C1=O ... > 100 µg/mL
7) CC1=C(O)S[C@](C)(/C=C(C)/C=C/c2ccccc2)C1=O ... > 100 µg/mL
8) CC(=O)C1=C(O)SC(C)(C/C=C(/C)CCC=C(C)C)C1=O (stereo not given) ... > 200 µg/mL
9) CC1=C(O)S[C@](C)(/C=C(C)/C=C/C#N)C1=O ... > 100 µg/mL
10) CC1=C(O)S[C@](C)(/C=C(\C)C#N)C1=O ... > 100 µg/mL
11) CC(=O)C1=C(O)S/C(=C\c2cccc(Oc3ccc(Cl)c(Cl)c3)c2)C1=O ... 1.56 µg/mL
12) CCOC(=O)/C=C/C(C)=C/[C@@]1(C)SC(O)=C(C)C1=O ... > 100 µg/mL
13) CC(=O)C1=C(O)SC(COC(=O)Cc2ccccc2)C1=O (stereo not given) ... 3.13 µg/mL
14) CC(=O)C1=C(O)S/C(=C\c2cccc(F)c2)C1=O ... 50 µg/mL
15) CC(=O)C1=C(O)SCC1=O ... > 200 µg/mL
16) CC1=C(O)S[C@](C)(/C=C(\C)C=C(Br)Br)C1=O ... > 100 µg/mL
17) CC(=O)C1=C(O)S/C(=C\c2ccc(C(F)(F)F)cc2)C1=O ... 3.13 µg/mL
18) CC(=O)/C=C/C(C)=C/[C@@]1(C)SC(O)=C(C)C1=O ... > 100 µg/mL
19) CC(=O)C1=C(O)SC(C/C=C(\C)CC/C=C(\C)CCC=C(C)C)C1=O (stereo not given) ... 1.56 µg/mL
20) CC(=O)C1=C(O)SC(C)C1=O (stereo not given) ... 50 µg/mL
21) CC(=O)C1=C(O)S/C(=C\c2ccc3c(c2)OCO3)C1=O ... > 200 µg/mL
22) C=C/C(C)=C\[C@@]1(C)SC(O)=C(C)C1=O ... > 100 µg/mL
23) CC(=O)C1=C(O)S/C(=C\c2ccc(C#N)cc2)C1=O ... 3.13 µg/mL
24) CC(=O)C1=C(O)S/C(=C\c2ccc(F)cc2)C1=O ... > 200 µg/mL
25) CC(=O)C1=C(O)S/C(=C\N(C)C)C1=O ... > 200 µg/mL
26) CC(=O)C1=C(O)C(C)(Cc2ccc(F)cc2)SC1=O (stereo not given) ... > 200 µg/mL
27) CC(=O)C1=C(O)S/C(=C\c2cccc(OCc3ccccc3)c2)C1=O ... 3.13 µg/mL
28) CC(=O)C1=C(O)S/C(=C\c2ccccc2)C1=O ... > 200 µg/mL
29) CC(=O)C1=C(O)SC(Cc2cccc(C(F)(F)F)c2)C1=O (stereo not given) ... 3.13 µg/mL
30) CC1=C(O)S[C@](C)(/C=C(\C)CO)C1=O ... > 100 µg/mL
31) CC(=O)C1=C(O)SC(C/C=C/c2ccccc2)C1=O (stereo not given) ... 3.13 µg/mL
32) CC(=O)C1=C(O)SC(CCC(C)CCCC(C)C)C1=O (stereo not given) ... 0.78 µg/mL
33) CC(=O)C1=C(O)S/C(=C\c2ccccn2)C1=O ... > 200 µg/mL
34) CCOC(=O)/C=C/C=C/C(C)=C/[C@@]1(C)SC(O)=C(C)C1=O ... > 100 µg/mL
35) CC(=O)C1=C(O)SC(C/C=C(/C)CC/C=C(\C)CCC=C(C)C)(C/C=C(/C)CC/C=C(\C)CCC=C(C)C)C1=O ... > 200 µg/mL
36) CC(=O)C1=C(O)S/C(=C\c2ccc(O)cc2)C1=O ... > 200 µg/mL
37) C=C/C(C)=C/[C@@]1(C)SC(=O)C(C)=C1OC(C)=O ... > 100 µg/mL
38) CCCNC/C(C)=C/[C@@]1(C)SC(O)=C(C)C1=O ... > 100 µg/mL
39) CC(=O)C1=C(O)S/C(=C\c2ccc(Cl)cc2Cl)C1=O ... 3.13 µg/mL
40) CC(=O)OC1=C(C)C(=O)S[C@]1(C)/C=C(\C)C=O ... > 100 µg/mL
